- protocol_details: qHTS Assay for Lipid Storage Modulators in Drosophila S3 Cells; note: potency is the fitted concentration of half-maximal effect
- condition_notes: BODIPY lipid droplet fluorescence, 18-24 h, cells fed with added oleic acid; series mostly up to 46.1 µM
Out of some 320,000 compounds screened, about 2,100 (0.66%) were called active. Inconclusive results (about 53%) are left out. Shown is part of a subset that was picked to be rich in actives.
readout_label: Potency

Worked cases, Potency given:
COCCn1c(SCC(=O)Nc2cc(C)on2)nc2c(c1=O)SC(C)C2 (configuration not stated)    inactive
c1ccc(-c2cn(C[C@H]3CC[C@@H]([C@@H]4CC[C@H](Cn5cc(-c6ccccn6)nn5)O4)O3)nn2)nc1    inactive
Cc1c(OC(C)C(=O)NCC(O)c2ccccc2)ccc2c3c(c(=O)oc12)CCCC3 (configuration not stated)    29.1 µM (active)
COc1cccc(/C=C2/C(=O)NN(c3ccccc3)C2=O)c1    inactive
O=C(COC(=O)c1cc(S(=O)(=O)N2CCOCC2)ccc1O)NCC1CCCO1 (configuration not stated)    inactive

Record `O=C(CSc1nc2ccc([N+](=O)[O-])cc2[nH]1)NC1CCCC1` , field Potency: inactive

The recorded Potency for entry CCOC(=O)CN1C(=O)C(O)(c2c(C)[nH]c3ccccc23)c2ccccc21 (configuration not stated) equals inactive

Reported Potency of `Cc1nc([N+](=O)[O-])c(C(=O)OCc2cccc(Br)c2)n1C` : inactive

Briefly, Potency measured for CCc1cc2c(-c3ccccc3)cc(=O)oc2cc1OCC(=O)NCC1CCC(C(=O)O)CC1 (configuration not stated) : inactive

# Potency (molecule: `CCc1cc2c(-c3ccccc3)cc(=O)oc2cc1OCC(C)=O` ) is 0.651 µM (active)

Potency reported for this molecule `COc1cccc(/C=C2/C(=O)NN(c3ccc(F)cc3)C2=O)c1` : inactive

---

- protocol_details: qHTS Assay for Lipid Storage Modulators in Drosophila S3 Cells;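 for cell number change: cells counted by Cell Tracker Red CMTPX staining in the red channel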
- condition_notes: BODIPY lipid droplet fluorescence, 18-24 h, cells fed with added oleic acid; measured here: cell count max response
The campaign covered roughly 320,000 compounds. About 2,100 (0.66%) were called active. About 53% were inconclusive and are not listed. The entries come from a sample that favours actives as a whole.
readout_label: cell number change (%)
Give just the number in %; leave the unit off.

Previously resolved entries follow.
CCOC(=O)CCN    3.17
C=CCN(Cc1cn(C)nc1-c1cccc(Cl)c1)C1CCS(=O)(=O)C1 (stereo not given)    -4.76
O=C(/C=C/c1cccc([N+](=O)[O-])c1)Nc1ccc(NC(=O)c2cccs2)cc1    5.37
Cc1cc(=O)[nH]c(SCC(=O)Nc2nc3c(s2)CCCC3)n1    12.9
COc1ccc(C(=O)N/N=C(\C)CC(=O)Nc2cccc(C(F)(F)F)c2)cc1    -2.05
CCc1nc2ccccc2n1CCC(=O)O    -14.7
O=C(Nc1ccc2c(c1)OCO2)C1CC(c2ccccc2O)=NO1 (stereo not given)    19.9
C/C(=N\O)C1CC(CC(=O)O)C1(C)C (stereo not given)    4.13

Lab book: cell number change of Cc1ccccc1NC(=O)C(=O)NC(C)CCc1ccccc1 (stereo not given) noted as 7.44

Per the records, this molecule ( `CCCNC(=O)c1ccc2c(c1)S(=O)(=O)c1ccccc1C2=O` ) has cell number change equal to 6.31

Every entry's value here was drawn from PubChem BioAssay AID2685.
